Where these numbers come from: paper PMC5540273

- Tested on: FGR;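 note: KINOMEscan kinase panel screen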
- EXPERIMENTAL_SETUP: concentration: 1 μM, replicates: in singlicate; n = 1
Consider the following compounds; for each one, report its %Inh.
Dear colleague, please return just the value in %, with no unit written.

Field request: %Inh | item: "O=C(c1ccc(-c2cc(-c3c[nH]nc3-c3ccccn3)ccn2)cc1)N1CCCC1" 17

Field request: %Inh | item: "Nc1nc(-c2ccc3c(N)n[nH]c3c2)cc(N2CCCCC2)n1" 12

Field request: %Inh | item: "OCCOCCn1ccc2ncnc(Nc3ccc(Oc4cccc(Cl)c4)c(Cl)c3)c21" 2

Field request: %Inh | item: "COC(=O)c1cccc(NC(=O)NCCNc2ccnc(Nc3ccc(F)cc3)n2)c1" 9

Field request: %Inh | item: "CC(C)(C)c1ccc(-n2cnc3c(N)ncnc32)cc1" 30

Field request: %Inh | item: "COC(=O)c1c(-c2ccccc2)c2cc(Cl)ccc2c(=O)n1Cc1ccc(S(C)(=O)=O)cc1" 0

Field request: %Inh | item: "Nc1nc(-c2ccccn2)c(-c2ccnc3ccccc23)s1" 9

Field request: %Inh | item: "Cl.Cn1ccc(-c2cccc(Nc3ccnc4cc(-c5nccs5)ccc34)c2)n1" 53

Field request: %Inh | item: "Cc1cccc(-c2nc(Nc3ccc4[nH]nnc4c3)c3ccccc3n2)n1" 0

Field request: %Inh | item: "c1ccc(-c2ccc3c(-c4ccnc(Nc5ccc6c(c5)OCCO6)n4)cnn3n2)cc1" 23

Field request: %Inh | item: "Cl.Fc1ccccc1COc1ccc(Nc2ncnc3ccc(-c4nnc(C(F)(F)F)o4)cc23)cc1Cl" 6
